molecular target: T1, human immunoglobulin E (hIgE) (human, UniProt P01854-1 1-428); test: SPR (Biacore) on hIgE
T1 construct: also called human IgE; Native IgE (Abcam)
T1 sequence (P01854 whole entry): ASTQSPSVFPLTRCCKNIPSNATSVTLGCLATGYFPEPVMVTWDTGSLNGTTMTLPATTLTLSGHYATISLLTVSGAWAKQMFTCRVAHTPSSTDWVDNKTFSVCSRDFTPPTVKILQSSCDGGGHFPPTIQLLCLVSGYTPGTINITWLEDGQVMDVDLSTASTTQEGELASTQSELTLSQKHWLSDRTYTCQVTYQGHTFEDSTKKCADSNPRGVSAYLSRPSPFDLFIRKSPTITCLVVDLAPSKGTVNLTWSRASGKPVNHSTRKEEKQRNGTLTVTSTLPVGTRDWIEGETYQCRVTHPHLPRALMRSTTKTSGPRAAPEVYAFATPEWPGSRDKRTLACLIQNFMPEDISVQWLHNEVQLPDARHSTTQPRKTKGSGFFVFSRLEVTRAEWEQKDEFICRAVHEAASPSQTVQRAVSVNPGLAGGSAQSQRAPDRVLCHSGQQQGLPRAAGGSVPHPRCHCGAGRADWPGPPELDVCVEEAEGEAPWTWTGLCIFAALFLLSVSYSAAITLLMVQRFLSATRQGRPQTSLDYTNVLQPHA
PARAMETER MEASURED: KD Ratio pH 5.5/pH 7.4

Would you please look over these solved cases?
Ask | Look at this binder and give its reported KD Ratio pH 5.5/pH 7.4. CL-2C mAb 35 (antibody, V domains shown, also called VK94H + VHWT) VH: QVQLVQSGAEVMKPGSSVKVSCKASGYTFSWYWLEWVRQAPGHGLEWMGEIDPGTFTTNYNEKFKARVTFTADTSTSTAYMELSSLRSEDTAVYYCARFSHFSGSNYDYFDYWGQGTLVTVSS VL: EIVMTQSPATLSVSPGERATLSCRASQSIGTNIHWYQQKPGQAPRLLIYYASESISGIPARFSGSGSGTEFTLTISSLQSEDFAVYYCQQSWSHPTTFGGGTKVEIK
Reply | 0.6

Ask | Look at this binder and give its reported KD Ratio pH 5.5/pH 7.4. CL-2C mAb 39 (antibody, V domains shown, also called VKWT + VH33H100AH) VH: QVQLVQSGAEVMKPGSSVKVSCKASGYTFSWYHLEWVRQAPGHGLEWMGEIDPGTFTTNYNEKFKARVTFTADTSTSTAYMELSSLRSEDTAVYYCARFSHFSGHNYDYFDYWGQGTLVTVSS VL: EIVMTQSPATLSVSPGERATLSCRASQSIGTNIHWYQQKPGQAPRLLIYYASESISGIPARFSGSGSGTEFTLTISSLQSEDFAVYYCQQSWSWPTTFGGGTKVEIK
Reply | 4.6

# ---- query binder ----
Ask | Look at this binder and give its reported KD Ratio pH 5.5/pH 7.4. CL-2C mAb 16 (antibody, V domains shown, also called VK50H92D94H + VH58H100BH) VH: QVQLVQSGAEVMKPGSSVKVSCKASGYTFSWYWLEWVRQAPGHGLEWMGEIDPGTFTTHYNEKFKARVTFTADTSTSTAYMELSSLRSEDTAVYYCARFSHFSGSHYDYFDYWGQGTLVTVSS VL: EIVMTQSPATLSVSPGERATLSCRASQSIGTNIHWYQQKPGQAPRLLIYHASESISGIPARFSGSGSGTEFTLTISSLQSEDFAVYYCQQSDSHPTTFGGGTKVEIK
Reply | 4.7
